Data origin: ChEMBL document CHEMBL3352699

# Lookup of reported hepatocyte CLint keyed by entry
ASSAY: Intrinsic clearance in human hepatocytes measured per 10^6 cells
Type: ADME, cell-based, Hepatocyte
RUN_PARAMETERS: read-out: CLH
All answers are understood in µL/min/1e6 cells, so give the number only.

ENTRY_SMILES	UNITS_TEXT	hepatocyte CLint
CN(C)Cc1ccc2c(c1)CCN(C(=O)c1cc3cc(Br)ncc3n1C)C2	µL/min/1e6 cells	5.3

IN: Need hepatocyte CLint of CN(C)Cc1ccc2c(c1)CCN(C(=O)c1cc3cc(Cl)ccc3n1C)C2 , thanks.
OUT: 40

---

ASSAY: Apparent permeability across apical to basolateral side in human Caco2 cells by LC-MS/MS analysis
Format: ADME, cell-based
RUN_PARAMETERS: Caco-2, read-out: permeability
MEASURE_NAME: Papp A→B (×10⁻⁶ cm/s)
All answers are understood in ×10⁻⁶ cm/s, so give the number only.

ENTRY_SMILES	Papp A→B / ×10⁻⁶ cm/s
CN(C)Cc1ccc2c(c1)CCN(C(=O)c1cc3cc(Cl)ccc3n1C)C2	7.8

Now consider a different molecule.
IN: Need Papp A→B of CN(C)Cc1ccc2c(c1)CCN(C(=O)c1cc3cc(Br)ncc3n1C)C2 , thanks.
OUT: 13.2

---

ASSAY: Intrinsic clearance in human liver microsomes
Format: ADME
RUN_PARAMETERS: read-out: CLH
# Lookup of reported microsomal CLint keyed by entry
All answers are understood in µL/min/mg, so give the number only.

IN: Need microsomal CLint of CN(C)Cc1ccc2c(c1)CCN(C(=O)c1cc3cc(Br)ncc3n1C)C2 , thanks.
OUT: 16

IN: Then this compound: CN(C)Cc1ccc2c(c1)CCN(C(=O)c1cc3cc(Cl)ccc3n1C)C2
OUT: 156

---

ASSAY: Octanol-water partition coefficient, log D of the compound at pH 7.4 by shake flask method
Format: physicochemical
Quick rule: logD of at least 2 means MET, below that means NOT MET.

MOLECULE	GROUP
CN(C)Cc1ccc2c(c1)CCN(C(=O)c1cc3cc(-c4ccccc4)ncc3n1C)C2	MET
CC1Cc2cc(CN(C)C)ccc2CN1C(=O)c1cc2cc(Br)ncc2n1C (racemic)	MET
CN(C)Cc1ccc2c(c1)CCN(C(=O)c1cc3cc(Cl)ncc3n1C)C2	NOT MET
CN(C)Cc1ccc2c(c1)CCN(C(=O)c1cc3cc(Br)ncc3n1C)C2	NOT MET
CC1CN(C(=O)c2cc3cc(Br)ncc3n2C)Cc2ccc(CN(C)C)cc21 (racemic)	MET

IN: hey, is logD for this one >= 2? CN(C)Cc1ccc2c(c1)CCN(C(=O)c1cc3ccncc3n1C)C2
OUT: NOT MET

IN: Then this molecule: CN(C)Cc1ccc2c(c1)CCN(C(=O)c1cc3cc(C(F)(F)F)ncc3n1C)C2
OUT: NOT MET

IN: Then this molecule: CN(C)Cc1ccc2c(c1)CCN(C(=O)c1cc3cc(Cl)ccc3n1C)C2
OUT: MET

IN: Then this molecule: C#Cc1cc2cc(C(=O)N3CCc4cc(CN(C)C)ccc4C3)n(C)c2cn1
OUT: NOT MET

IN: Then this molecule: Cc1cc2cc(C(=O)N3CCc4cc(CN(C)C)ccc4C3)n(C)c2cn1
OUT: NOT MET

IN: Then this molecule: CC1c2ccc(CN(C)C)cc2CCN1C(=O)c1cc2cc(Br)ncc2n1C (racemic)
OUT: MET
